Kindly state Ki for each of the entries shown.
Biological target: T1, human GLP-1 receptor (human, UniProt P43220 24-463)
T1 construct: whole, on cells; also called hGLP-1R; hGLP1R
Assay: [125I]-GLP-1 competition SPA, hGLP-1R membranes
Numeric only. Scale: nM

Noted for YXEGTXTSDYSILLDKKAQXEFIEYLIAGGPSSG (Aib2; αMeF6; K17((2-[2-(2-Amino-ethoxy)-ethoxy]-acetyl)2-(γ-Glu)-CO-(CH2)16-CO2H); Aib20; C-terminal NH2) [Example 310] : its Ki reads 1.7

Noted for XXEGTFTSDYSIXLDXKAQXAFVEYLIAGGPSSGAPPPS (D-Tyr1; Aib2; αMeL13; Orn16; K17((2-[2-(2-Amino-ethoxy)-ethoxy]-acetyl)2-(γ-Glu)-CO-(CH2)18-CO2H); Aib20; C-terminal NH2) [Example 358] : its Ki reads 1.37

Noted for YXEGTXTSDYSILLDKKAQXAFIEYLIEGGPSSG (Aib2; αMeF6; K17((2-[2-(2-Amino-ethoxy)-ethoxy]-acetyl)2-(γ-Glu)-CO-(CH2)16-CO2H); Aib20; C-terminal NH2, also called GG-650) [Example 301] : its Ki reads 0.875

Noted for YXEGTXTSDASIXLDXKAQXAFIXXLIEGGPSSGAPPPS (Aib2; αMeF(2F)6; αMeL13; Orn16; K17((2-[2-(2-Amino-ethoxy)-ethoxy]-acetyl)2-(γ-Glu)-CO-(CH2)16-CO2H); Aib20; D-Glu24; αMeY25; C-terminal NH2) [Example 246] : its Ki reads 0.812

Noted for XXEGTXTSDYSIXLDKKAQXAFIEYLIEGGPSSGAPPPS (D-Tyr1; Aib2; αMeF6; αMeL13; K17((2-[2-(2-Amino-ethoxy)-ethoxy]-acetyl)2-(γ-Glu)-CO-(CH2)18-CO2H); Aib20; C-terminal NH2) [Example 335] : its Ki reads 2.54

Noted for YXEGTXTSDYSIXLDEKAQXEFIXYLIEGGPSSG (Aib2; αMeF(2F)6; αMeL13; K17((2-[2-(2-Amino-ethoxy)-ethoxy]-acetyl)2-(γ-Glu)-CO-(CH2)16-CO2H); Aib20; D-Glu24; C-terminal NH2) [Example 219] : its Ki reads 2.01

Data origin, for the record: patent US20200024322A1
